# Tested on: NCI-H226 lung
# EXPERIMENT_NOTES: NCI tumour cell line growth inhibition, 48 h; in the data active = GI50 below about 0.43 µM; inactive = the rest
Outcome codes: active, inactive

| MOLECULE | TARGET_OR_TEST_SYSTEM | CAT |
| --- | --- | --- |
| COc1ccc(-c2nnc3n(C)c(=O)c4ccccc4n23)cc1O | NCI-H226 lung | inactive |
| c1ccc(-c2n(Cc3ccc4ccccc4n3)c3ccccc3[n+]2Cc2ccc3ccccc3n2)cc1 | NCI-H226 lung | active |
| COC(=O)[C@]12CC[C@@H](C)[C@H](C)[C@@H]1C1=CC[C@@H]3[C@@]4(C)C(c5ncon5)=C[C@@](C)(CO)C4=CC[C@@]3(C)[C@]1(C)CC2 | NCI-H226 lung | inactive |
| O=C(c1ccc(O)cc1)c1ccc(C(=O)c2ccc(O)cc2)cc1 | NCI-H226 lung | inactive |
| O=C1C2C(C(=O)[N]1[Hg][c]1ccccc1)C1(Cl)C(Cl)=C(Cl)C2(Cl)C1(Cl)Cl (centres undefined) | NCI-H226 lung | inactive |
| COc1ccc2nc(-c3ccccc3)cc(Nc3ccc(/C(C)=N/O)cc3)c2c1 | NCI-H226 lung | inactive |
| CC(=O)OC1CCC2(C)C(CCC3C2CCC2(C)C(C4=CC(=O)OC4)CCC32)C1 (centres undefined) | NCI-H226 lung | inactive |
| C[C@@H]1CN(Cc2ccc(/C=C/c3n[nH]c4ccc5nc(-c6cn[nH]c6C(F)(F)F)c6c(c5c34)CCCC6)cc2)C[C@H](C)O1 | NCI-H226 lung | inactive |
| O=C1OCC2=C1C(c1cccc(F)c1)c1cc3c(cc1N2CCO)OCCO3 (centres undefined) | NCI-H226 lung | inactive |
| COc1cc(C2c3cc4c(cc3C3OC(=O)C2C3CO)OCO4)cc(OC)c1OC (centres undefined) | NCI-H226 lung | active |
| COc1cc(C(=O)/C=C/c2c(-c3ccc(F)cc3)nc3sccn23)cc(OC)c1OC | NCI-H226 lung | inactive |
| O=C(Cc1ccc(/C=C/C(=O)c2ncc[nH]2)cc1)Nc1ccc(Br)cc1 | NCI-H226 lung | inactive |
| CCN(CC)c1ccc(/C=C/C(=O)c2cccc(NS(C)(=O)=O)c2)cc1 | NCI-H226 lung | inactive |
| CCC[CH2][Sn]1([CH2]CCC)[O]C(=O)C[S]1 | NCI-H226 lung | inactive |

###

# Test system: OVCAR-8 ovarian
# EXPERIMENT_NOTES: NCI tumour cell line growth inhibition, 48 h
The entries below are paired with their reported GI50.
RECORDED_ENDPOINT: GI50

| MOLECULE | RECORDED_ENDPOINT | TEST_VALUE |
| --- | --- | --- |
| O=C(c1ccc(O)cc1)c1ccc(C(=O)c2ccc(O)cc2)cc1 | GI50 | 20.8 µM |
| O=S(=O)(NC(=S)Nc1ccccc1)c1ccc(N2N=C3c4ccccc4CC3C2c2ccc(Cl)cc2)cc1 (stereo not given) | GI50 | 26.8 µM |
| c1ccc(Cn2cc3c(c2)-c2oncc2CC3)cc1 | GI50 | 2.79 µM |
| COC(=O)[C@]12CC[C@@H](C)[C@H](C)[C@@H]1C1=CC[C@@H]3[C@@]4(C)C(c5ncon5)=C[C@@](C)(CO)C4=CC[C@@]3(C)[C@]1(C)CC2 | GI50 | 3.41 µM |
| COc1cc2c(cc1OCCCCC(=O)Nc1ccc(-c3nc4ccccc4s3)cc1)N=C[C@@H]1CCCN1C2=O | GI50 | 1.57 µM |
| NC1=CC(=O)C(=O)c2cccnc21 | GI50 | 3.21 µM |
| Cn1cc(-c2csc(-c3cn(CCN4CCOCC4)c4ccc(F)cc34)n2)c2cccnc21 | GI50 | 2.75 µM |
| CC(=O)OCCC/C(=C\c1ccc2ccccc2c1)[N+](=O)[O-] | GI50 | 2.06 µM |
| O=C(Cc1ccccc1)Nc1nnc(CCSCCc2nnc(NC(=O)Cc3ccccc3)s2)s1 | GI50 | 6.12 µM |
| COc1ccc2nc(-c3ccccc3)cc(Nc3ccc(/C(C)=N/O)cc3)c2c1 | GI50 | 3.02 µM |
